Test system: HA-tagged PA of FluA
Conditions: read-out: IC50 (nM) PA (FluA)
Outcome measure: IC50 (nM)
One number for each entry, in nM.

Asked: I would be grateful if you could share the reported IC50 for MDVNPYFLFLKVPAQ [PB11-15 AT6Y, L7F] .
Given back: 7.51
